Endpoint summary: pKi, system: UniProt P43116, multiple sources combined.
Just the number, please; pKi means minus log10 of the concentration in mol/L.

Below: 2 compounds and their reported pKi.
In [3]: df
Out[3]:
                                   compound  measure_name  measurement
0  CCCCCC(O)c1ccc(N2C(=O)CC[C@@H]2C=CCc2ccc(C(=O)O)s2)cc1 (some centres unmarked)           pKi         5.86
1  C=CCCc1cccc(/C=C/[C@@H]2[C@@H](CCCc3ccc(C(=O)O)s3)[C@H](Cl)C[C@H]2O)c1           pKi         9.15

Problem: Please list pKi recorded for the compound O=C(O)c1ccc(CCC[C@@H]2[C@@H](C=C=Cc3cccc(C(F)(F)F)c3)[C@H](O)C[C@H]2Cl)s1
Result: 7.96

Problem: # return recorded pKi for input CCC1(C(O)CCCC2C(C#N)CCC2CCCc2ccc(C(=O)O)s2)CCC1 (centres unmarked)
Result: 6.29

Problem: Quickly give me recorded pKi for O=C(NCCc1ccc(C(=O)O)s1)c1cccc(-c2cccc(F)c2)c1
Result: 6.82

Problem: Give the measured pKi for O=C(O)c1ccc(CC[C@H]2C(=O)CC[C@@H]2/C=C/C(O)Cc2cccc(Cl)c2)cc1 (some centres unmarked)
Result: 5.56

Problem: // fetch pKi given entry O=C(O)c1ccc(CCN2C(=O)CCN2CCC(O)Cc2cccc(C(F)(F)F)c2)cc1 (centres unmarked)
Result: 5.18

Problem: Check the records and state pKi for O=C(NCCc1ccc(C(=O)O)s1)c1cc(F)cc(-c2cccc(F)c2)c1
Result: 6.91

---

Endpoint summary: Ki, system: Prostaglandin E2 receptor EP2 subtype (Homo sapiens, UniProt P43116), multiple sources combined.
Reply numerically in nM, unit not repeated.

>>> df
                                   molecule                              study_system  measurement
0  CCCCCC(O)/C=C/[C@@H]1[C@@H](CCCc2ccc(C(=O)O)s2)[C@H](Cl)C[C@H]1O (single isomer, unassigned)  Prostaglandin E2 receptor EP2 subtype (Homo sapiens, UniProt P43116)          202
1  CCCCCC(O)c1ccc(N2C(=O)CC[C@@H]2CCSc2nc(C(=O)O)cs2)cc1 (single isomer, unassigned)  Prostaglandin E2 receptor EP2 subtype (Homo sapiens, UniProt P43116)           15
2  CCCCc1cnc2c(C(=O)Nc3cccc(OCC(=O)O)c3)cccc2c1  Prostaglandin E2 receptor EP2 subtype (Homo sapiens, UniProt P43116)           27
3  CCCCCC(O)c1ccc(C2=CCC[C@@H]2CCCc2ccc(C(=O)O)s2)cc1 (some centres unmarked)  Prostaglandin E2 receptor EP2 subtype (Homo sapiens, UniProt P43116)            5
4  O=C(O)c1ccc(CCN2C(=O)CCN2CCCC(O)C2(CC3CC3)CCC2)cc1 (centres unmarked)  Prostaglandin E2 receptor EP2 subtype (Homo sapiens, UniProt P43116)          610

Problem: Look up and state reported Ki for CCCC(O)c1ccc(N2C(=O)CC[C@@H]2COCc2ccc(C(=O)O)s2)cc1 (mixture of isomers)
Result: 1640

Problem: Indicate the recorded Ki value for this molecule: O=C(O)c1ccc(CC[C@H]2C(=O)CC[C@@H]2/C=C/C(O)Cc2ccc(F)c(F)c2)cc1 (single isomer, unassigned)
Result: 1530

Problem: Recall and state the measured Ki for CCCCc1ccc2c(C(=O)Nc3cccc(OCC(=O)O)c3)cccc2c1 .
Result: 51

Problem: Give a short answer stating reported Ki for CCCCC[C@H](O)c1ccc(N2C(=O)CC[C@@H]2C/C=C/c2ccc(C(=O)O)s2)cc1 .
Result: 1420

Problem: Please list Ki recorded for the molecule Cc1cc(C)cc(CC2=CCc3cccc(CCc4ccc(C(=O)O)cc4)c32)c1
Result: 6

Problem: Output Ki of O=C(O)c1ccc(CC[C@H]2C(=O)CC[C@@H]2/C=C/C(O)Cc2cccc(F)c2F)cc1 (single isomer, unassigned)
Result: 1240
